# assay summary: activity coefficient (dimensionless); of the first substance listed, at infinite dilution; xn = mol fraction of the nth substance listed
# experimental context: 368.15 K; 101 kPa; Liquid; Chromatography; x1 = 0
Recorded activity coefficient for the following compounds
Give the value as a plain number.

Below, each entry is followed by its recorded activity coefficient result.
compound: CCCCCCCCC [nonane] + CCCC[N+]1(C)CCOCC1.N#C[C-](C#N)C#N
activity coefficient: 115
--
compound: CCC[N+](=O)[O-] [1-nitropropane] + CCCC[N+]1(C)CCOCC1.N#C[C-](C#N)C#N
activity coefficient: 1.01

Here is another compound to look at.
**Query** What value of activity coefficient has been reported for the following compound? CCC(C)CC [3-methylpentane] + CCCC[N+]1(C)CCOCC1.N#C[C-](C#N)C#N
**Result** 33.5

Reference for the values: the NIST ThermoML archive (doi:10.1016/j.jct.2013.08.030)
